Molecular target: G9a (Homo sapiens, UniProt Q96KQ7)
Sequence (Q96KQ7 1-1210): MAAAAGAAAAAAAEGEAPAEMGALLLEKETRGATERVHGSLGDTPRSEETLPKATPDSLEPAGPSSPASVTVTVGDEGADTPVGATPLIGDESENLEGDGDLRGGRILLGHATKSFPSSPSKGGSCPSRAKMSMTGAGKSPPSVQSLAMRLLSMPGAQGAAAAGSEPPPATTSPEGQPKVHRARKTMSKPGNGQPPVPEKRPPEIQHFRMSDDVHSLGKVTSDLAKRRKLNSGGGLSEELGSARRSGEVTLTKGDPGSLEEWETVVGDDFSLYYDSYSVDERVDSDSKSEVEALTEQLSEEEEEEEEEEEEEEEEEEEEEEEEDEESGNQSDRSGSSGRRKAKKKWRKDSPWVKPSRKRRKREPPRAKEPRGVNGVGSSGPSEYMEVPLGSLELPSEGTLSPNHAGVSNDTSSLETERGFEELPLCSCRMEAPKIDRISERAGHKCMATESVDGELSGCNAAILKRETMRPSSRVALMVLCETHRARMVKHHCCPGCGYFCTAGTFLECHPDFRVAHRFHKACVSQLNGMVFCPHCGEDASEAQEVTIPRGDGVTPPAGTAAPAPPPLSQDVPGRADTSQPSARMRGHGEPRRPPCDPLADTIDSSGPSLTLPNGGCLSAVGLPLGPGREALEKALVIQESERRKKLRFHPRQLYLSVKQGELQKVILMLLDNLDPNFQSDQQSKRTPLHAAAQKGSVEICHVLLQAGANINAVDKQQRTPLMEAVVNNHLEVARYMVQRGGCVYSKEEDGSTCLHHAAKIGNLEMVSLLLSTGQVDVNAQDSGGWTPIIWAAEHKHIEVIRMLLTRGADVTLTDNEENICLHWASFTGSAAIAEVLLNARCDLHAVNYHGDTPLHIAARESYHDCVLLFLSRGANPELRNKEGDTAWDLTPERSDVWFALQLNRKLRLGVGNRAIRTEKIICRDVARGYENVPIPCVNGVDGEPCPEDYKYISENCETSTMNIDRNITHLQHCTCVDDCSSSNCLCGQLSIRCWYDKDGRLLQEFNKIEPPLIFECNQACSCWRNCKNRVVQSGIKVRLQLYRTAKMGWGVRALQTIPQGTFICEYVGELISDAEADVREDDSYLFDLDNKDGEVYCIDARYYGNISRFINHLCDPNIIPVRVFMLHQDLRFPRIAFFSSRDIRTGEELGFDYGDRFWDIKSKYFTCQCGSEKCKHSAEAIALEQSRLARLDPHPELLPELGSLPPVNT
pIC50: −log10 of the molar value. Where a name gives a salt, the structure may show the parent alone.
QUANTITY_NAME: pIC50

Sample records with pIC50:
COc1cc2c(cc1OCCCN(C)C)[nH]c1ccnc(CCC(C)(C)O)c12 [Compound 49, hydrochloride] : 7.35
COc1cc2c(cc1OCC1CCCNC1)[nH]c1ccncc12 (stereo not shown) [Compound 87, hydrochloride] : 6.62

(a) COc1cc2c(cc1OCCCN1CCCC1)[nH]c1ccnc(C3CCOCC3)c12 [Compound 65, hydrochloride]
(b) CCN(CC)CCCOc1cc2[nH]c3ccnc(C4CC4)c3c2cc1OC [Compound 102, hydrochloride]
(c) COc1cc2c(cc1OCCCN(C)C)[nH]c1ccnc(SC)c12 [Compound 95, hydrochloride]
(d) COc1cc2c(cc1OCCN1CCCC1)[nH]c1ccncc12 [Compound 71, hydrochloride]
Sort ascending by pIC50. Submit the labels in the order that the ranking request calls for.
c, b, d, a

(a) COc1cc2c(cc1OCCCN1CCCC1)[nH]c1ccnc(N3CC[C@H](O)C3)c12
(b) COc1cc2c(cc1OCCCN1CCCC1)[nH]c1c(Cl)cnc(N3CCCC3)c12 [Compound 86, hydrochloride]
(c) COc1cc2c(cc1OCCCN(C)C)[nH]c1ccnc(CCC3CC3)c12 [Compound 52, hydrochloride]
(d) COc1cc2c3cnccc3n(C)c2cc1OCCCN1CCCC1 [Compound 94, hydrochloride]
Rank by pIC50 (largest to smallest). Please respond by ranking the labels in the order requested.
a, d, c, b
